Provide the recorded IC50 for the entries that follow.
- Target under test: CYP2D6 (Homo sapiens)
- Sequence (P10635 whole entry): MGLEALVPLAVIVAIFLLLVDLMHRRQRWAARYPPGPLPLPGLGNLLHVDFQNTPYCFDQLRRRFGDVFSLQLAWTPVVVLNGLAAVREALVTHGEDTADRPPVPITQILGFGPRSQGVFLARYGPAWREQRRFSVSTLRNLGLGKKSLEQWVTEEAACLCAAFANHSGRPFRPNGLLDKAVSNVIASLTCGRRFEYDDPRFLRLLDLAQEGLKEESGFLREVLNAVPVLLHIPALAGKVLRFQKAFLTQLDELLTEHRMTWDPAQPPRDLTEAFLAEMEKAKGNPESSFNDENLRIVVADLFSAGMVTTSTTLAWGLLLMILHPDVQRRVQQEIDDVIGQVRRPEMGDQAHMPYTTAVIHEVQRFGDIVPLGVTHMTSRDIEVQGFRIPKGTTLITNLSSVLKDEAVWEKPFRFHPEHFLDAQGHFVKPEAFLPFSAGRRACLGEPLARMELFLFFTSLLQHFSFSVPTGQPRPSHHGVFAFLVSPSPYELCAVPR
- Assay name: CYP2D6 inhibition assay (bufuralol, pooled human liver microsomes)
- Condition notes: 2D6 IC50 (uM), CYP2D6 inhibition
Answer in µM, number only, no unit symbol.

Query: Given the entry "CNc1nc(CC(C)(C)C)cc2c1OC1(CCC1)C[C@@H]2NC[C@@H](O)[C@H](Cc1ccc(F)c(-c2nccs2)c1)NC(=O)COC" , report its measured IC50.
Reply: 1.5

Query: Given the entry "COCC(=O)N[C@@H](Cc1cc(F)cc(F)c1)[C@H](O)CN[C@H]1CC2(CCC2)Oc2c1cc(C1CC1)cc2-n1ccnc1" , report its measured IC50.
Reply: 0.3

Query: Given the entry "COCC(=O)N[C@@H](Cc1ccc(F)c(-c2cscn2)c1)[C@H](O)CN[C@H]1CC2(CCC2)Oc2ncc(CC(C)(C)C)cc21" , report its measured IC50.
Reply: 2.3

Query: Given the entry "CC(=O)N[C@@H](Cc1ccc(-c2cscn2)cc1)[C@H](O)CN[C@H]1CC2(CCC2)Oc2ncc(CC(C)(C)C)cc21" , report its measured IC50.
Reply: 2.9

Query: Given the entry "CO[C@H](C)C(=O)N[C@@H](Cc1cc(F)cc(F)c1)[C@H](O)CN[C@H]1CC2(CCC2)Oc2c1cc(CC(C)C)nc2Cl" , report its measured IC50.
Reply: 6.1

Query: Given the entry "CNc1nc(CC(C)C)cc2c1OC1(CCC1)C[C@@H]2NC[C@@H](O)[C@H](Cc1ccc2c(c1)OCO2)NC(=O)[C@@H](C)OC" , report its measured IC50.
Reply: 14

Query: Given the entry "COCC(=O)N[C@@H](Cc1ccc(F)c(-c2ncc(C)s2)c1)[C@H](O)CN[C@H]1CC2(CCC2)Oc2ncc(CC(C)(C)C)cc21" , report its measured IC50.
Reply: 3.9

Query: Given the entry "COCC(=O)N[C@@H](Cc1cc(F)cc(-c2nccs2)c1)[C@H](O)CN[C@H]1CC2(CCC2)Oc2ncc(CC(C)C)cc21" , report its measured IC50.
Reply: 0.5

Query: Given the entry "CO[C@H](C)C(=O)N[C@@H](Cc1ccc(F)c(F)c1)[C@H](O)CN[C@H]1CC(C)(C)Oc2ncc(CC(C)(C)C)cc21" , report its measured IC50.
Reply: 21.8

Query: Given the entry "COCC(=O)N[C@@H](Cc1cc(F)cc(F)c1)[C@H](O)CN[C@H]1CC(C)(C)Oc2c1cc(Br)c1c2OCO1" , report its measured IC50.
Reply: 3.8

Query: Given the entry "CN1CCO[C@@H](C(=O)N[C@@H](Cc2ccc(F)cc2)[C@H](O)CN[C@H]2CC3(CCC3)Oc3ncc(CC(C)(C)C)cc32)C1" , report its measured IC50.
Reply: 6.7
